# TGI annotations
System: TK-10 renal
experiment: NCI tumour cell line growth inhibition, 48 h

// below: answered compounds
• COC1CC(OC)C2OC(c3ccccc3)OCC2O1 (centres undefined) = > 100 µM
• CO[C@]12C#CC=CC#C[C@@H](O)[C@]3(CCC1)O[C@@]23c1cccc(O)c1 = > 100 µM
• O=c1c2c3c(sc2n2c(CCl)nnc2n1Cc1ccccc1)CCCC3 = 10.7 µM
• CCCCCc1c(Cl)nc(Cl)nc1Cl = 32.2 µM
• COc1ccc(C(=O)C2C(C#N)C(C#N)C3C=Cc4ccccc4N32)cc1 (centres undefined) = > 100 µM

Read the entry `COc1ccc2[nH]c(C(=O)N3CCN(C(=O)OCc4ccc5c(Br)cc(Br)c(O)c5n4)CC3)cc2c1` and write its reported TGI.
1.01 µM

Read the entry `O=C(/C=C/c1ccccc1O)C(c1ccccc1)c1ccccc1` and write its reported TGI.
> 100 µM

---

Tested on: OVCAR-3 ovarian
experiment: NCI tumour cell line growth inhibition, 48 h
quantityMeasured: TGI

// below: answered compounds
- CSC1C=C(C(C)C)CCC1(C)SC (stereo not given): 25.2 µM
- C=C1CC(c2ccc(O)c(OC)c2)Oc2c(OC)cccc21 (stereo not given): > 100 µM
- COc1cc2c3c(n(CCCNCCCNCCCn4c5c(c6cc(OC)c(OC)cc6c4=O)C(=O)c4ccccc4-5)c(=O)c2cc1OC)-c1ccccc1C3=O: 31.5 µM

Read the entry `C[n+]1cn(-c2ccc([N+](=O)[O-])cn2)c2ccccc21` and write its reported TGI.
> 100 µM

Read the entry c1ccc(C2=NOC3COc4ccccc4OCC23)cc1 (stereo not given) and write its reported TGI.
> 100 µM

Read the entry COc1cc(/C=C2\CCC(C)C3=C(c4cc(OC)c(OC)c(OC)c4)C(C#N)=C(N)OC32)cc(OC)c1OC (stereo not given) and write its reported TGI.
> 60.1 µM

Read the entry `COc1ccc(-c2nc3cc(F)ccc3s2)cc1O` and write its reported TGI.
> 100 µM

Read the entry Cc1cccc(N2C(=O)C3c4[nH]c5ccccc5c4C4CCC(C(C)(C)C)CC4C3C2=O)c1C (stereo not given) and write its reported TGI.
> 100 µM

Read the entry CC(O)C1(CNc2cc(Cl)nc(N)n2)CCCC1 (stereo not given) and write its reported TGI.
> 100 µM

Read the entry `O=C(/C=C/c1ccccc1O)C(c1ccccc1)c1ccccc1` and write its reported TGI.
> 100 µM

---

Test system: SN12C renal
experiment: NCI tumour cell line growth inhibition, 48 h
# TGI annotations

- Cc1ccc2c3c4c(ccc13)C(C)(C)OC4=C(C(C)C)C2=O: > 100 µM
- Cc1cc(C)n(-c2nc3ccccc3c(=O)[nH]2)n1: > 100 µM
- CC1(C)CC2(S(=O)(=O)c3ccccc3)ON1CC2S(=O)(=O)c1ccccc1 (stereo not drawn): > 100 µM
- Cc1ccc(C(=O)CCl)o1: > 10 µM
- Cc1ccc(S(=O)(=O)Oc2ccccc2-c2ccccc2)cc1: > 100 µM

Read the entry CCN1CC2(COC)C(O)CC(OC)C34C5CC6(O)C(OC)C=C(C5C6OC(=O)c5ccc(OC)c(OC)c5)C(C(OC)C23)C14 (stereo not drawn) and write its reported TGI.
> 7.5 µM

Read the entry `CC(=O)Oc1cc2c[n+](C)c3c4cc(OC(C)=O)c(OC(C)=O)cc4ccc3c2cc1OC(C)=O` and write its reported TGI.
> 100 µM

Read the entry `Cc1ccc(S(=O)(=O)N2CCCN(S(=O)(=O)c3ccc(C)cc3)CC2)cc1` and write its reported TGI.
> 100 µM

Read the entry `CC1=Nc2c(N)nc(N)nc2N(C)C1` and write its reported TGI.
> 100 µM

Read the entry NCCSCC(N)C(=O)O (stereo not drawn) and write its reported TGI.
> 497 µM

Read the entry `C[C@]12CC[C@@H]3c4ccc(OS(N)(=O)=O)cc4CC[C@H]3[C@@H]1CCC2=O` and write its reported TGI.
> 100 µM

Read the entry `Cc1nnc2sc(Cc3cnc(N)s3)nn12` and write its reported TGI.
> 100 µM

Read the entry O=c1[nH]cnc2c1cnn2Cc1cn(COCC(O)CO)nn1 (stereo not drawn) and write its reported TGI.
> 100 µM

---

# TGI annotations
Test system: SN12C renal
experiment: NCI tumour cell line growth inhibition, 48 h

* COc1ccccc1C1(c2c(OC(C)C)c(=O)c2=O)SCCCS1 | > 100 µM
* COc1ccc(COC(=O)NNC(=O)C2CSC(c3ccccc3)N2C(C)=O)cc1 (configuration not stated) | > 100 µM
* CCOC(OC1=CCCC1)C(C)[Se]c1ccccc1 (configuration not stated) | > 100 µM
* CCN(CCCl)CCCCNc1c2ccccc2nc2ccc(OC)cc12 | 1.61 µM
* CC(=O)N(C)C=C1C(=O)N(C)C(=O)N(C)C1=O | > 100 µM

Read the entry `CCOC(=O)C(C)(C)Oc1ccc(Cl)cc1` and write its reported TGI.
> 1000 µM

Read the entry CCOC(=O)C(NC(=O)CC)(C(F)(F)F)P(=O)(OCC)OCC (configuration not stated) and write its reported TGI.
> 100 µM

---

Test system: SK-MEL-28 melanoma
experiment: NCI tumour cell line growth inhibition, 48 h
quantityMeasured: TGI

- Cc1noc(NS(=O)(=O)c2ccc(NC(=O)c3ccc4[nH]c5ccccc5c(=O)c4c3)cc2)c1C: > 100 µM
- C=C1C2CC[C@@](C)(O)C2[C@H]2OC(=O)C(=C)[C@@H]2C[C@H]1O (stereo partly specified): 72.8 µM
- O=C(CCl)Nc1ccc2c(Nc3cc(O)ccc3Cl)ncnc2c1: 7.97 µM
- C=C1CC[C@@H]2C(C)(C)C(O)CCC2(C)C1COc1ccc2ccc(=O)oc2c1 (stereo partly specified): 32.2 µM
- c1ccc(C2=NOC3COc4ccccc4OCC23)cc1 (stereo unspecified): > 100 µM

Moving on to the next compound.
Read the entry CCOC(=O)C(C(N)=O)c1nc2cc([N+](=O)[O-])ccc2nc1/C=C(\O)c1ccccc1 (stereo unspecified) and write its reported TGI.
86.9 µM

---

Test system: SNB-19 CNS
experiment: NCI tumour cell line growth inhibition, 48 h
# TGI annotations

// below: answered molecules
• COC(=O)N1c2ccc3c(nc(Cc4ccccc4)n3[C@H]3CCC[C@H](C(=O)O)C3)c2CC[C@@H]1C = > 100 µM
• CC(C)=CCc1ccc2[nH]c3c(c2c1)C(=O)C(=O)C(C)=C3C(O)C(C)O (configuration not stated) = 31 µM
• N#Cc1c(-c2ccc(Cl)cc2)cc(-c2cc(O)ccc2O)nc1N = > 45.3 µM
• CC(C)(C)c1cc(COc2cc(COc3ccc(-c4c5c(nc6c4CCc4ccc(-c7c8ccccc8nc8ccccc78)cc4-6)-c4cc(-c6c7ccccc7nc7ccccc67)ccc4CC5)cc3)cc(OCc3cc(C(C)(C)C)cc(C(C)(C)C)c3)c2)cc(C(C)(C)C)c1 = > 100 µM
• O=C1C(C(Nc2ccccc2)c2ccccc2)=C([O-])c2ccccc21.O=C1C(C(Nc2ccccc2)c2ccccc2)=C([O-])c2ccccc21.[Co+2] (configuration not stated) = > 100 µM
• CCN(C(=O)N[C@@H](Cc1ccccc1)C(=O)N[C@@H](CC(C)C)C(=O)NC)c1ccccc1 = > 100 µM

Read the entry `COc1ccc(C(=O)NCCNc2nccc(-c3c(-c4ccc(F)cc4)nc4sccn34)n2)cc1` and write its reported TGI.
> 100 µM

Read the entry `CN(C)CC/C(=N\Nc1c(F)c(F)c(F)c(F)c1F)c1ccccc1` and write its reported TGI.
> 100 µM

Read the entry COC(=O)/C(C#N)=C1\CCC(Nc2cccc(C(F)(F)F)c2)N1C (configuration not stated) and write its reported TGI.
> 100 µM

Read the entry CC12CC[C@@H]3c4cc5c(cc4CC[C@H]3[C@@H]1CCC2O)oc1cc(F)ccc15 (some centres not stated) and write its reported TGI.
40.9 µM

Read the entry `CC1=Nn2c(nnc2-c2ccccc2Cl)NC(C)(C)C1` and write its reported TGI.
> 100 µM

Read the entry CCOC(=O)C1(C(C)=O)OC(=O)c2cnccc21 (configuration not stated) and write its reported TGI.
> 100 µM

Read the entry Clc1ccc(C2c3ccccc3-c3nc4ccccc4n32)cc1 (configuration not stated) and write its reported TGI.
> 64.8 µM

Read the entry `O=C(/C=C/c1ccccc1O)C(c1ccccc1)c1ccccc1` and write its reported TGI.
> 100 µM

---

System: U251 CNS
experiment: NCI tumour cell line growth inhibition, 48 h
# TGI annotations

- COc1ccc(Nc2nc(C#N)c(N)s2)cc1: > 100 µM
- CCCCCCCCCC1CC(=O)Oc2cccc(O)c21 (stereo unspecified): 25.4 µM
- O=C(CCl)Nc1ccc2c(Nc3cc(O)ccc3Cl)ncnc2c1: 2.97 µM
- O=C(CC1(O)C(=O)N(Cc2ccccc2)c2ccc(Br)cc21)c1ccc(C(=O)NCC2CCC3(CC2)OOC2(CCCCC2)OO3)cc1 (stereo unspecified): 0.92 µM
- Cn1cccc(C(=O)c2ccccc2)c1=O: > 100 µM

Read the entry CCOC(=O)C1C=C1C(C)(C)O (stereo unspecified) and write its reported TGI.
> 10 µM
